Catalogue of KINOMEscan: HIPK2 values
# targetSystem: panel of 442 kinases (Homo sapiens, UniProt Q9H2X6)
# Construct: purchased KINOMEscan
# Sequence (Q9H2X6 whole entry): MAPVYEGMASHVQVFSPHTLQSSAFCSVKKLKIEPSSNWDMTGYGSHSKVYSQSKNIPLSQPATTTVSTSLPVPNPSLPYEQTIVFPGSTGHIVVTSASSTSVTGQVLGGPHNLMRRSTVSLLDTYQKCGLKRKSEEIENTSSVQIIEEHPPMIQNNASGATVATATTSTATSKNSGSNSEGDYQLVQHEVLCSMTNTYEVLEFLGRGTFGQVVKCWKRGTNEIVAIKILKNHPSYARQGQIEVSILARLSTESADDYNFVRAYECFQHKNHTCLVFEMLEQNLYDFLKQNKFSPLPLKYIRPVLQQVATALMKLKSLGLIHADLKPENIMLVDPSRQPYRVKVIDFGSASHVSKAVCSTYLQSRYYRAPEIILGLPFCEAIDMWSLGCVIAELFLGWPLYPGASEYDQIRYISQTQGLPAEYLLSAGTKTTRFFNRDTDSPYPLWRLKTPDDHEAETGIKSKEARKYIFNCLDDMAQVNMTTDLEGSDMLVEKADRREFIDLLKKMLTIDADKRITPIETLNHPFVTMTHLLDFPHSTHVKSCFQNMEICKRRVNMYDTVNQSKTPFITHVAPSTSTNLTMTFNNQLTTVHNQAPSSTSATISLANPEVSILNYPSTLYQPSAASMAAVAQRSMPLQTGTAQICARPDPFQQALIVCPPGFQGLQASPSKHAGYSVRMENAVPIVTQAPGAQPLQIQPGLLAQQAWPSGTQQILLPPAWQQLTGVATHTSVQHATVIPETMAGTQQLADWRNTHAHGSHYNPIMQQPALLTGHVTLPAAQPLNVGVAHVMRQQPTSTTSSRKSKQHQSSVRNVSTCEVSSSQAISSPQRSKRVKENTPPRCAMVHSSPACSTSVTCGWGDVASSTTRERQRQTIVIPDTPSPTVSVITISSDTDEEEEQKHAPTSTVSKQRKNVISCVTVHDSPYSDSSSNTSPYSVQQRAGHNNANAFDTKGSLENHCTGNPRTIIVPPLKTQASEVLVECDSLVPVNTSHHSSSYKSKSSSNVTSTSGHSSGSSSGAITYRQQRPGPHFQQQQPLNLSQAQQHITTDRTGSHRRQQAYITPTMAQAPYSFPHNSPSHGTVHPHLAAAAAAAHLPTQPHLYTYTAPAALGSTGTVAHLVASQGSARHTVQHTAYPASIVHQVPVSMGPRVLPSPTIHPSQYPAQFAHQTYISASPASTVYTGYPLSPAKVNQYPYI
# Type: binding
# setupConditions: Compound Concentration 10 µM
Field format: numeric only.

compound: COc1cc(C(=O)N2CCC(N3CCN(C)CC3)CC2)ccc1Nc1ncc2c(n1)N(C1CCCC1)c1ccccc1C(=O)N2C [Compound 25]
quantitativeReadout: 100
--
compound: COc1cc(C(=O)N2CCC(N3CCN(C)CC3)CC2)ccc1Nc1ncc2c(n1)N(C)c1ccccc1C(=O)N2C [15 (LRRK2-IN-1)]
quantitativeReadout: 88
--
compound: COc1cc(C(=O)N2CCC(N3CCN(C)CC3)CC2)ccc1Nc1ncc2c(n1)N1CCc3cccc(c31)C(=O)N2C [Compound 24]
quantitativeReadout: 88

Ask | Determine from records and report KINOMEscan: HIPK2 for CCOc1cc(C(=O)N2CCC(N3CCN(C)CC3)CC2)ccc1Nc1ncc2c(n1)N(C1CCCC1)c1ccccc1C(=O)N2C [Compound 26]
Reply | 100
